Field: IC50. Provide a value for each of the compounds that follow.
target.under.test: ER (Homo sapiens, UniProt P03372)
Construct: endogenous in cells
method.notes: ER antagonism (T47D ERE luciferase), T47d-kb-Luc cells
condition: read-out: IC50 (ER antagonistm)

Worked examples, 3 compounds total:
* CC/C(=C(\c1ccc(OCCN2CCN(C(=O)N3CCN(c4ccc5c(c4)CN([C@H]4CCC(=O)NC4=O)C5=O)CC3)CC2)cc1)c1ccc(B(O)O)cc1)c1ccccc1 | < 10 nM
* CC/C(=C(\c1ccc(O)cc1)c1ccc(N2CCN(C(=O)N3CCC(N4CCN(c5ccc6c(c5)CN(C5CCC(=O)NC5=O)C6=O)CC4)CC3)CC2)cc1)c1ccccc1 (centres unmarked) | < 10 nM
* CC/C(=C(/c1ccc(B(O)O)cc1)c1ccc(C2CCN(CCCN3CCN(c4ccc5c(c4)C(=O)N(C4CCC(=O)NC4=O)C5=O)CC3)CC2)cc1)c1ccccc1 (centres unmarked) | 10 to 50 nM

Working through the 6 compounds below one at a time, give IC50 for each.
1. CC/C(=C(/c1ccc(O)cc1)c1ccc(N2CCN(C(=O)N3CCN(c4ccc5c(c4)CN([C@@H]4CCC(=O)NC4=O)C5=O)CC3)CC2)cc1)c1ccccc1
2. CC/C(=C(\c1ccc(B(O)O)cc1)c1ccc(N2CCC(CCCN3CCN(c4ccc5c(c4)CN(C4CCC(=O)NC4=O)C5=O)CC3)CC2)cc1)c1ccccc1 (centres unmarked)
3. CC/C(=C(\c1ccc(B(O)O)cc1)c1ccc(N2CCC(CCN3CCN(c4ccc5c(c4)CN(C4CCC(=O)NC4=O)C5=O)CC3)CC2)cc1)c1ccccc1 (centres unmarked)
4. CC/C(=C(/c1ccc(OCCN2CCN(c3ccc4c(c3)C(=O)N(C3CCC(=O)NC3=O)C4=O)CC2)cc1)c1ccc(B(O)O)cc1)c1ccccc1 (centres unmarked)
5. CC/C(=C(\c1ccc(B(O)O)cc1)c1ccc(N2CCC(CNC3CCN(c4ccc5c(c4)C(=O)N(C4CCC(=O)NC4=O)C5=O)CC3)CC2)cc1)c1ccccc1 (centres unmarked)
6. CC/C(=C(/c1ccc(O)cc1)c1ccc(N2CCN(C(=O)N3CCN(c4ccc5c(c4)CN(C4CCC(=O)NC4=O)C5=O)CC3)CC2)cc1)c1ccccc1 (centres unmarked)

Result:
1. < 10 nM
2. < 10 nM
3. < 10 nM
4. 10 to 50 nM
5. 10 to 50 nM
6. < 10 nM

Working through the 8 compounds below one at a time, give IC50 for each.
1. CC/C(=C(\c1ccc(O)cc1)c1ccc(OCCN2CCN(C(=O)N3CCC(N4CCN(c5ccc6c(c5)CN(C5CCC(=O)NC5=O)C6=O)CC4)CC3)CC2)cc1)c1ccccc1 (centres unmarked)
2. CC/C(=C(/c1ccc(O)cc1)c1ccc(OCCN2CCN(C(=O)N3CCN(c4ccc5c(c4)CN([C@H]4CCC(=O)NC4=O)C5=O)CC3)CC2)cc1)c1ccccc1
3. CC/C(=C(/c1ccc(O)cc1)c1ccc(OCCN2CCN(C(=O)N3CCC(CN4CCN(c5ccc6c(c5)CN(C5CCC(=O)NC5=O)C6=O)CC4)CC3)CC2)cc1)c1ccccc1 (centres unmarked)
4. CC/C(=C(\c1ccc(OCCN2CCC(CN3CCN(c4ccc5c(c4)CN([C@H]4CCC(=O)NC4=O)C5=O)CC3)CC2)cc1)c1ccc(B(O)O)cc1)c1ccccc1
5. CC/C(=C(\c1ccc(B(O)O)cc1)c1ccc(N2CCN(C(=O)N3CCC(CN4CCN(c5ccc6c(c5)CN(C5CCC(=O)NC5=O)C6=O)CC4)CC3)CC2)cc1)c1ccccc1 (centres unmarked)
6. CC/C(=C(/c1ccc(B(O)O)cc1)c1ccc(N2CCC(CN3CCN(c4ccc5c(c4)C(=O)N(C4CCC(=O)NC4=O)C5)CC3)CC2)cc1)c1ccccc1 (centres unmarked)
7. CC/C(=C(\c1ccc(B(O)O)cc1)c1ccc(N2CCN(CCC3CCN(c4ccc5c(c4)C(=O)N(C4CCC(=O)NC4=O)C5=O)CC3)CC2)cc1)c1ccccc1 (centres unmarked)
8. CC/C(=C(\c1ccc(OCCN2CCC(C3CCN(c4ccc5c(c4)C(=O)N(C4CCC(=O)NC4=O)C5=O)CC3)CC2)cc1)c1ccc(B(O)O)cc1)c1ccccc1 (centres unmarked)

Result:
< 10 nM
< 10 nM
< 10 nM
< 10 nM
< 10 nM
< 10 nM
< 10 nM
10 to 50 nM

----------
target.under.test: ERα (Homo sapiens)
Construct: endogenous in cells; host or cells: MCF-7
Sequence (P03372 1-595): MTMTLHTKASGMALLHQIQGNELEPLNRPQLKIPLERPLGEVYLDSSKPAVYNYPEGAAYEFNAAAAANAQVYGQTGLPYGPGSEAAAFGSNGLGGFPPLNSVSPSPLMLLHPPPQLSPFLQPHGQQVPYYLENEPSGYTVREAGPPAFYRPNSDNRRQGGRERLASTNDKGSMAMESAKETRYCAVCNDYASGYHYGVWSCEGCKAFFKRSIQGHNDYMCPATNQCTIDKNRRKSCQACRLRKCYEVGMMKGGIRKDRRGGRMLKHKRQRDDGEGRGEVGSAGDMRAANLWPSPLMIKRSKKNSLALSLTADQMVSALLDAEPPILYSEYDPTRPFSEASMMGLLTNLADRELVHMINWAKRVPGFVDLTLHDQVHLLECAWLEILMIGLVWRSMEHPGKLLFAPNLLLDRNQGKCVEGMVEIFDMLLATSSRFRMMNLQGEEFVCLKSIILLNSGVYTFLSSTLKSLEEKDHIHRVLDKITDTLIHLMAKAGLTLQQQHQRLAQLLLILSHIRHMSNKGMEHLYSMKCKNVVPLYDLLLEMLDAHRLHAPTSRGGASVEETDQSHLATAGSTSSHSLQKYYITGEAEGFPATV
method.notes: ER degradation in MCF-7 cells (Western blot)
Assay type: cell-based
condition: ER degradation, 24 hours
value.type: DC50

Working through the 8 molecules below one at a time, give DC50 for each.
1. CC/C(=C(\c1ccc(OCCCCCN2CCN(c3ccc4c(c3)CN(C3CCC(=O)NC3=O)C4=O)CC2)cc1)c1ccc(B(O)O)cc1)c1ccccc1 (stereo not drawn)
2. CC/C(=C(/c1ccc(O)cc1)c1ccc(N2CCN(C(=O)N3CCN(c4ccc5c(c4)CN([C@H]4CCC(=O)NC4=O)C5=O)CC3)CC2)cc1)c1ccccc1
3. CC/C(=C(/c1ccc(O)cc1)c1ccc(OCCN2CCN(C(=O)N3CCC(CN4CCN(c5ccc6c(c5)CN(C5CCC(=O)NC5=O)C6=O)CC4)CC3)CC2)cc1)c1ccccc1 (stereo not drawn)
4. CC/C(=C(\c1ccc(OCCN2CCC(CCN3CCN(c4ccc5c(c4)CN(C4CCC(=O)NC4=O)C5=O)CC3)CC2)cc1)c1ccc(B(O)O)cc1)c1ccccc1 (stereo not drawn)
5. CC/C(=C(/c1ccc(B(O)O)cc1)c1ccc(N2CCN(CCCN3CCN(c4ccc5c(c4)C(=O)N(C4CCC(=O)NC4=O)C5=O)CC3)CC2)cc1)c1ccccc1 (stereo not drawn)
6. CC/C(=C(/c1ccc(B(O)O)cc1)c1ccc(N2CCN(C(=O)N3CCC(N4CCN(c5ccc6c(c5)CN(C5CCC(=O)NC5=O)C6=O)CC4)CC3)CC2)cc1)c1ccccc1 (stereo not drawn)
7. CC/C(=C(\c1ccc(OCCN2CCC(N3CCN(c4ccc5c(c4)C(=O)N(C4CCC(=O)NC4=O)C5=O)CC3)CC2)cc1)c1ccc(B(O)O)cc1)c1ccccc1 (stereo not drawn)
8. CC/C(=C(/c1ccc(B(O)O)cc1)c1ccc(N2CCC(CNC3CCN(c4ccc5c(c4)C(=O)N(C4CCC(=O)NC4=O)C5=O)CC3)CC2)cc1)c1ccccc1 (stereo not drawn)

Result:
1. 10 to 50 nM
2. < 10 nM
3. < 10 nM
4. < 10 nM
5. < 10 nM
6. 10 to 50 nM
7. 10 to 50 nM
8. < 10 nM

Working through the 5 molecules below one at a time, give DC50 for each.
1. CC/C(=C(/c1ccc(B(O)O)cc1)c1ccc(N2CCN(CCCN3CCN(c4ccc5c(c4)CN(C4CCC(=O)NC4=O)C5=O)CC3)CC2)cc1)c1ccccc1 (stereo not drawn)
2. CC/C(=C(/c1ccc(B(O)O)cc1)c1ccc(N2CCC(CN3CCN(c4ccc5c(c4)C(=O)N(C4CCC(=O)NC4=O)C5=O)CC3)CC2)cc1)c1ccccc1 (stereo not drawn)
3. CC/C(=C(\c1ccc(O)cc1)c1ccc(N2CCN(C(=O)N3CCN(c4ccc5c(c4)CN(C4CCC(=O)NC4=O)C5=O)CC3)CC2)cc1)c1ccccc1 (stereo not drawn)
4. CC/C(=C(\c1ccc(OCCN2CCN(CC3CCN(c4ccc5c(c4)CN([C@@H]4CCC(=O)NC4=O)C5=O)CC3)CC2)cc1)c1ccc(B(O)O)cc1)c1ccccc1
5. CC/C(=C(/c1ccc(O)cc1)c1ccc(OCCN2CCN(C(=O)N3CCC(N4CCN(c5ccc6c(c5)CN(C5CCC(=O)NC5=O)C6=O)CC4)CC3)CC2)cc1)c1ccccc1 (stereo not drawn)

Result:
< 10 nM
10 to 50 nM
10 to 50 nM
< 10 nM
10 to 50 nM

Working through the 5 molecules below one at a time, give DC50 for each.
1. CC/C(=C(/c1ccc(B(O)O)cc1)c1ccc(N2CCC(CN3CCN(c4ccc5c(c4)CN(C4CCC(=O)NC4=O)C5=O)CC3)CC2)cc1)c1ccccc1 (stereo not drawn)
2. CC/C(=C(\c1ccc(O)cc1)c1ccc(N2CCN(C(=O)N3CCC(N4CCN(c5ccc6c(c5)CN(C5CCC(=O)NC5=O)C6=O)CC4)CC3)CC2)cc1)c1ccccc1 (stereo not drawn)
3. CC/C(=C(\c1ccc(OCCN2CCN(C(=O)N3CCC(CN4CCN(c5ccc6c(c5)CN(C5CCC(=O)NC5=O)C6=O)CC4)CC3)CC2)cc1)c1ccc(B(O)O)cc1)c1ccccc1 (stereo not drawn)
4. CC/C(=C(/c1ccc(OCCN2CCN(CCN3CCN(c4ccc5c(c4)C(=O)N(C4CCC(=O)NC4=O)C5=O)CC3)CC2)cc1)c1ccc(B(O)O)cc1)c1ccccc1 (stereo not drawn)
5. CC/C(=C(\c1ccc(O)cc1)c1ccc(OCCN2CCN(C(=O)N3CCC(CN4CCN(c5ccc6c(c5)CN(C5CCC(=O)NC5=O)C6=O)CC4)CC3)CC2)cc1)c1ccccc1 (stereo not drawn)

Result:
< 10 nM
10 to 50 nM
< 10 nM
< 10 nM
< 10 nM
